Origin of the recorded values: ChEMBL document CHEMBL1123300

Target: Renin (Homo sapiens)
Sequence (P00797 whole entry): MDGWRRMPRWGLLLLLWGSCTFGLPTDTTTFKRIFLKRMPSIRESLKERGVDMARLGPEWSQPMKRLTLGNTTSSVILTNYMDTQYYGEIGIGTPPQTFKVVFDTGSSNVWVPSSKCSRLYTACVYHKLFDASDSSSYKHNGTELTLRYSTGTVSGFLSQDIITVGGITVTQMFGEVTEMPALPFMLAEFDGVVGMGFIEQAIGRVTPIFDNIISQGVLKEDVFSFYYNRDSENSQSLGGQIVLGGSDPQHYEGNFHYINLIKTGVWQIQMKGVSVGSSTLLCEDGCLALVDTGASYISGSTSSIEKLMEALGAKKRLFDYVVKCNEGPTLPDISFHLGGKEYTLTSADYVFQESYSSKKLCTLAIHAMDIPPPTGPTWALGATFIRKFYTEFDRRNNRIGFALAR
Assay: In vitro inhibitory activity against human plasma renin
Type: cell-free
READOUT_KIND: pIC50
For clarity, pIC50 is expressed as the negative log10 of concentration in mol/L.

Please indicate recorded pIC50 of "CCC[C@H](N[C@@H](CC(C)C)[C@@H](O)CC(=O)N[C@@H](C)C(=O)N[C@@H](CC(C)C)[C@@H](O)CC(=O)OC)C(=O)N[C@@H](Cc1ccccc1)C(=O)NC(=O)CC(C)C" measured with Renin (Homo sapiens). 7.38

Answer briefly: pIC50 recorded on Renin (Homo sapiens) for "COC(=O)C[C@H](O)[C@H](CC(C)C)NC(=O)[C@H](C)NC(=O)C[C@H](O)[C@H](CC(C)C)NC(=O)[C@H](Cc1ccccc1)NC(=O)[C@H](Cc1ccccc1)NC(=O)OC(C)(C)C" 6.72

Report pIC50 from Renin (Homo sapiens) testing of COC(=O)CC(O)[C@H](CC(C)C)NC(=O)[C@H](C)NC(=O)CC(O)[C@H](CC(C)C)NC(=O)CCCNC(=O)[C@H](Cc1ccccc1)NC(=O)CC(C)C (stereo not given in full) 6.70
